Molecular target: hGcgR (Homo sapiens, UniProt P47871)
Sequence (P47871 26-477): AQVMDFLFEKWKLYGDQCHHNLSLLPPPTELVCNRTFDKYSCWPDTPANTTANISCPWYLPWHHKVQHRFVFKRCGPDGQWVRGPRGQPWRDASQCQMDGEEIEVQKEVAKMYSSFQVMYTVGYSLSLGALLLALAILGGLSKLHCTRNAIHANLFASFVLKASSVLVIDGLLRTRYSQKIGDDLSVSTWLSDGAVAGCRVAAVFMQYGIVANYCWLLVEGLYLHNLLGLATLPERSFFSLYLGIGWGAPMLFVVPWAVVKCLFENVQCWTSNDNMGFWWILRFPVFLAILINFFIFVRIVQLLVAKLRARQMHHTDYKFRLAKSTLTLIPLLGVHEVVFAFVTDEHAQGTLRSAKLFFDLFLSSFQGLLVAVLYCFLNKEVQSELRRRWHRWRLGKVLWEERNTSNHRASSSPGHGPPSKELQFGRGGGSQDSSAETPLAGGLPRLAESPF
Experiment: Functional cAMP activation in the presence of 0.1% casein (no HSA);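 note: intracellular cAMP rise after 30 min at 37 °C, read by HTRF against a cAMP standard curve, scaled from buffer only (0%) to maximal control ligand response (100%)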
Format: cell-based
Details: in the presence of 0.1% casein (no HSA); geometric mean; read-out: Relative cAMP EC50, hGcgR
pEC50: −log10 of the molar value. Starred links: 1 amine or outer side, 2 acyl side, 3 side chain; linkers in the order of their positions; H or OH if unused. Non-standard residues stand in square brackets, D forms with d. Groups on a side chain read outwards from the residue. No end group written: not given here. *: point of attachment. C20 diacid = O=C(O)CCCCCCCCCCCCCCCCCCC(=O)*; C18 diacid = O=C(O)CCCCCCCCCCCCCCCCC(=O)*; αMePhe(2-F) = C[C@](N)(Cc1ccccc1F)C(=O)O; γGlu = O=C(O)[C@H](CCC(=O)[*:2])N[*:1]; αMe4Pal = C[C@](N)(Cc1ccncc1)C(=O)O; αMeY = C[C@](N)(Cc1ccc(O)cc1)C(=O)O; Hyp = O=C(O)[C@@H]1C[C@@H](O)CN1; 4Pal = N[C@@H](Cc1ccncc1)C(=O)O; αMeL = CC(C)C[C@](C)(N)C(=O)O; Orn = NCCC[C@H](N)C(=O)O; AEEA = NCCOCCOCC(=O)O; Aib = CC(C)(N)C(=O)O
Decision: pEC50 >= 8 yields true (1), all other cases yield false (0).

> print(dat)
                                  substance  class.name
1  Y[Aib]QGTFTSD[4Pal]SQ[αMeL]LDKK([AEEA-γGlu-C18 diacid])AQ[αMe4Pal]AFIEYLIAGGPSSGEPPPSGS-NH2 [Example 828]    true (1)
2  H-Y[Aib]QGTFTSDFS[Orn][αMeL]LDKK([AEEA-γGlu-C18 diacid])AQ[Aib]AFIEYLLEGGPSSGAPP[Hyp]GGS-NH2 [Example 237]    true (1)
3  H-Y[Aib]QGT[αMePhe(2-F)]TSDYSI[αMeL]LDKK([AEEA-AEEA-γGlu-C20 diacid])AA[Aib]AFIEYLIETGPSSGAPPPSEG-NH2 [Example 383]    true (1)
4  H-Y[Aib]QGTFTSD[4Pal]S[Orn][αMeL]LD[Orn]K([Glu-γGlu-C18 diacid])AQ[Aib]AFIE[αMeY]LLEGGPSSGAPPPSGSEE-NH2 [Example 1066]   false (0)

Please turn your attention to the following entry.
Enquiry: I'd appreciate it if you could say whether H-Y[Aib]QGTFTSD[4Pal]SQ[αMeL]LDKK([γGlu-γGlu-C18 diacid])AQ[αMe4Pal]AFIEYLIE[Aib]GPSSGAPPPSGE-NH2 [Example 882] has pEC50 at least equal to 8.
Return: true (1)
